- Test system: HCT116 WT cells
- RUN DESCRIPTION: HCT116 proliferation assay, WT cells (CellTiter-Glo, 6 days)
- Assay type: cell-based
- CONDITION CONTEXT: Homo sapiens, HCT-116, 144 h, read-out: Prolif_HCT116-WT IC50
# maps each entry to its IC50
Respond with the bare value in µM.

# example entries with known answers
Cc1cc2cc(C(=O)N(Cc3ccc(OCC(F)(F)F)nn3)[C@H](C)c3ncccn3)ccc2nc1N    5.16
Cc1cc2cc(C(=O)N(Cc3ccc(C(F)(F)F)cn3)[C@H](C)c3ccc(F)cc3)ccc2nc1N    4.81
Cc1cc2cc(C(=O)N(Cc3ccc(C(F)(F)F)cn3)CC3CC3)ccc2nc1N    6.18

Find IC50 for Cc1cc2cc(C(=O)N(Cc3ccc(C(F)(F)F)nn3)[C@H](C)c3ncccc3F)ccc2nc1N on HCT116 WT cells and write it down.
1.91
